- studySystem: T1, Strep tagged recombinant human PD-1 (human, UniProt Q15116 25-170, limits assumed)
- T1 construct: the whole entry is named; also called strep tagged human PD-1; not shown: Strep tag
- T1 sequence (Q15116 25-170 limits assumed): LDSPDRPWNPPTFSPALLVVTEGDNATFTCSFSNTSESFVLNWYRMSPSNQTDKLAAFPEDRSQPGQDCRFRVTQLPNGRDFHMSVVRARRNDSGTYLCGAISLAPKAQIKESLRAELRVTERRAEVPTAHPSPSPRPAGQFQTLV
- runDescription: SPR Biacore T200, strep-tagged PD-1 amine-coupled, single cycle kinetics
Measured pKd of individual entries
In simple prose, pKd is minus the logarithm base ten of a concentration in moles per litre.

>>> recordedmeasurement("1.57-9GS-1.57 (other, bivalent construct of two VH domains in one chain) QVQLVESGGGLVKPGGSLRLSCAASGFTFSDNSMTWMRQAPGKGLEWVSYISSGGGVIFYADSVKGRFTISRDNAKNSLYLQMNSLRADDTAVYYCAREAPLRLGESPHDAFDISGQGTMVTVSSGGGGSGGGGSGGGGSGGGGSGGGGSGGGGSGGGGSGGGGSGGGGSQVQLVESGGGLVKPGGSLRLSCAASGFTFSDNSMTWMRQAPGKGLEWVSYISSGGGVIFYADSVKGRFTISRDNAKNSLYLQMNSLRADDTAVYYCAREAPLRLGESPHDAFDISGQGTMVTVSS")
10.65

Proceed to the following item.
QUERY: # get_value(readout='pKd', item= 1.57-4GS-1.57 (other, bivalent construct of two VH domains in one chain) QVQLVESGGGLVKPGGSLRLSCAASGFTFSDNSMTWMRQAPGKGLEWVSYISSGGGVIFYADSVKGRFTISRDNAKNSLYLQMNSLRADDTAVYYCAREAPLRLGESPHDAFDISGQGTMVTVSSGGGGSGGGGSGGGGSGGGGSQVQLVESGGGLVKPGGSLRLSCAASGFTFSDNSMTWMRQAPGKGLEWVSYISSGGGVIFYADSVKGRFTISRDNAKNSLYLQMNSLRADDTAVYYCAREAPLRLGESPHDAFDISGQGTMVTVSS )
RESULT: 10.76
